Tested on: CAKI-1 renal
test method notes: NCI tumour cell line growth inhibition, 48 h
Catalogue of molecules with associated GI50

Observe how each entry below is paired with its result.
molecule: COc1ccc2c(c1)N(CCO)C1=C(C(=O)OC1)C2c1ccccc1 (centres undefined)
meas value: 1.15 µM
//
molecule: CC(=O)C1CCC2C3CC=C4CC(SC(=N)N)CCC4(C)C3CCC12C (centres undefined)
meas value: 1.68 µM
//
molecule: CCCCCCN(C)Cc1ccc(OCCOc2ccc(CN(C)CCCCCC)cc2)cc1
meas value: 1.35 µM
//
molecule: O=C(Nc1cccc(Cl)c1)c1cc(N=Nc2ccc([N+](=O)[O-])cc2Cl)ccc1O
meas value: 1.93 µM
//
molecule: COc1cc(/C=C\c2cc(/C=C\c3ccc(O)c(OC)c3)n(C(=O)CNc3ccc(Cl)cc3)n2)ccc1O
meas value: 3.36 µM

Give its GI50 value. Item: CCc1nc2cc(/C=C/C(=O)NO)ccc2c(=O)n1CCc1ccc(F)cc1
2.27 µM

I'd like to know its GI50. The molecule in question is O=C(Nc1cccnc1)c1ccc2ccc3ccc(C(=O)Nc4cccnc4)nc3c2n1
0.135 µM

Give its GI50 value. Item: C=C1CCC2C3(C)COC(c4ccc(Cl)cc4)OC3CCC2(C)C1/C=C/C1=CCOC1=O (centres undefined)
6.87 µM

Value lookup for GI50; key = CCC[CH2][Sn]([CH2]CCC)([O]C(=O)c1cc(F)cc(F)c1)[O][Sn]([CH2]CCC)([CH2]CCC)[O]C(=O)c1cc(F)cc(F)c1
0.663 µM
